- SYSTEM NAME: EGFR (Homo sapiens)
- Construct: Kinases are expressed as either kinase domains or full length constructs; made in house
- Sequence (P00533 25-1210, species assumed): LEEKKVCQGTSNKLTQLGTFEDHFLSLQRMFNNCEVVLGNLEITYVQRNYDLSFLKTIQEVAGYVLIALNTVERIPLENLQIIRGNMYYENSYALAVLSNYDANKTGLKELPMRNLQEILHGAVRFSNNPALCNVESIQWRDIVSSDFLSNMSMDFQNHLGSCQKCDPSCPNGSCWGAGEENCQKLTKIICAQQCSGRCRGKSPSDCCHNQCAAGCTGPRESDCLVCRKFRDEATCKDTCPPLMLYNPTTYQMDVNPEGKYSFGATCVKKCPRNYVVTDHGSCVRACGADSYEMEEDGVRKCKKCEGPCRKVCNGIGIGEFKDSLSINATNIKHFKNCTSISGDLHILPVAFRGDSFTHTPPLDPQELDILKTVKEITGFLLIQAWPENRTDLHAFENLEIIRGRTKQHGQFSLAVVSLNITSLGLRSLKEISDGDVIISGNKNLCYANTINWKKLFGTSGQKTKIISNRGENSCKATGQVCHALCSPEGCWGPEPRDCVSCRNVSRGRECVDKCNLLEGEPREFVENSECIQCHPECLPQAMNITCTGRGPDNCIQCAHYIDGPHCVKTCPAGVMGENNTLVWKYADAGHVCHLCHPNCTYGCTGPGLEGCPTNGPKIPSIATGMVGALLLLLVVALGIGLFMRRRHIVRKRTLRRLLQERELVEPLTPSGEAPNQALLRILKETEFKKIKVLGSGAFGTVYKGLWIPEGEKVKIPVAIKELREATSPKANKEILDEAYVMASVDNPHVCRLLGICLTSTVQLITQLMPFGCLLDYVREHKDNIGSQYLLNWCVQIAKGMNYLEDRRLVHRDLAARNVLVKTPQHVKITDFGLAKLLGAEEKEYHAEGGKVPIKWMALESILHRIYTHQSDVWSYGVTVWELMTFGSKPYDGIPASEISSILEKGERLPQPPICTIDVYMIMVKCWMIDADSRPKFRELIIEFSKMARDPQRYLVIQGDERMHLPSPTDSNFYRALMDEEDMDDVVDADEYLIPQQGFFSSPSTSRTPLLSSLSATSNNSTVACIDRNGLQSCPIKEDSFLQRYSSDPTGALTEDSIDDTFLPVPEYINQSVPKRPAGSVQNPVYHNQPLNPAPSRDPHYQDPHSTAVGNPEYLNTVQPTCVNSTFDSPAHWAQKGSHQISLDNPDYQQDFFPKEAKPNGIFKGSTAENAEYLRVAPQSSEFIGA
- METHOD NOTES: Kinase inhibition assay (33P transfer), EGFR
- Assay type: biochemical
- CONDITION SET: Table 2, kinase inhibition class; read-out: EGFR-1
Each entry below lists one item and its recorded IC50 value.

>>> assay_result("Clc1cccc(Nc2ncnc(Nc3cc(-c4ccccc4)n[nH]3)n2)c1")
"< 1.1 µM"

// lookup IC50 | system=EGFR (Homo sapiens) | key= COc1cc(Nc2ncnc(Cl)n2)cc(OC)c1OC
> 15.2 µM

// lookup IC50 | system=EGFR (Homo sapiens) | key= N#Cc1cccc(Nc2ncnc(-n3c(=O)[nH]c4ccccc43)n2)c1
> 13.7 µM

// lookup IC50 | system=EGFR (Homo sapiens) | key= COC(=O)c1ccc(Nc2ncnc(-c3ccccc3)n2)cc1
> 14.7 µM

// lookup IC50 | system=EGFR (Homo sapiens) | key= COc1cc(Nc2ncnc(-n3c(NCc4ncc[nH]4)nc4ccccc43)n2)cc(OC)c1OC
> 9.5 µM

// lookup IC50 | system=EGFR (Homo sapiens) | key= CC(C)(C)OC(=O)NCCCNc1ncnc(-c2ccccc2)n1
> 13.7 µM

// lookup IC50 | system=EGFR (Homo sapiens) | key= COc1cc(Nc2ncnc(Nc3ccc(-c4ccccc4)cc3)n2)cc(OC)c1OC
8.15 to 10.5 µM

// lookup IC50 | system=EGFR (Homo sapiens) | key= COc1cc(Nc2ncnc(-c3cccnc3)n2)cc(OC)c1OC
> 13.3 µM
